Target: PI3K beta (Homo sapiens, UniProt P42338)
Construct: for the full-length p110-b subunit are generated and fused by overlapping PCR; p85(iSH2) fusion partner (same polypeptide; see partner chain) (N); Gly linker (N); His tag (C); Tn5 (Trichoplusia ni) or TiniPro insect cells
Sequence (P42338 with tags, fused parts or gaps limits assumed): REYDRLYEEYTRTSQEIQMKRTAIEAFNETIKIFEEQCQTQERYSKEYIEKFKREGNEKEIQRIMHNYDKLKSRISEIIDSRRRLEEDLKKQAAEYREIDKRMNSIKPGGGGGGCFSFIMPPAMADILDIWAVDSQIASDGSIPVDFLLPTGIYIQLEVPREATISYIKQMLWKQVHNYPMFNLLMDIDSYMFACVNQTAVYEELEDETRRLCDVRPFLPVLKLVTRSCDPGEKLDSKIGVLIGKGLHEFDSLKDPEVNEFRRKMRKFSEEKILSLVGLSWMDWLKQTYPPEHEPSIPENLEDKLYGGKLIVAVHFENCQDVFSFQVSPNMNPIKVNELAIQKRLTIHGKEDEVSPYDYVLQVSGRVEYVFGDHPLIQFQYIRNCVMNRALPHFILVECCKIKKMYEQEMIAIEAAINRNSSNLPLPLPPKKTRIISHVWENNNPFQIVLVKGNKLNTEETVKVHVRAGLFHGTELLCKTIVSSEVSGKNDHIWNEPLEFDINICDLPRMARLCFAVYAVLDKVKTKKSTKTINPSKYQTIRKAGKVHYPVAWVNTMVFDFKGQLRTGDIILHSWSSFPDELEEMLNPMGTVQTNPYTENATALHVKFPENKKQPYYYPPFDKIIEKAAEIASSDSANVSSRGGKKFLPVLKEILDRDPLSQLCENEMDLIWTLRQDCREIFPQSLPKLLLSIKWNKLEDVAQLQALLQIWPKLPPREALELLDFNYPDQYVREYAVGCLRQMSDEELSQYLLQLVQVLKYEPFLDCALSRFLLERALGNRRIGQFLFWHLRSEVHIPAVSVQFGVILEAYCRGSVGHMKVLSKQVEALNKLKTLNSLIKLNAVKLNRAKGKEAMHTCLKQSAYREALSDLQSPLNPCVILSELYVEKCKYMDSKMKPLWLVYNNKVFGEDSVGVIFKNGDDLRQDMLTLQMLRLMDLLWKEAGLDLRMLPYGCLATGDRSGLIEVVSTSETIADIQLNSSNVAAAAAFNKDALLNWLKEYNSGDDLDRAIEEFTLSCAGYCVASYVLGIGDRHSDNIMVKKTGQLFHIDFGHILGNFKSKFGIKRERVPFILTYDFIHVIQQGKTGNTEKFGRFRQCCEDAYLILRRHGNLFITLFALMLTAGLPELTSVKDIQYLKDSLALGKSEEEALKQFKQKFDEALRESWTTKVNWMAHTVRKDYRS
Assay: PI3K beta enzymatic assay (Kinase-Glo luminescence)
Settings: Enzymatic Data
Decide using IC50 alone. Strictly below 4 µM: label 1. Equal to or above 4 µM: label 0.

Some solved cases for reference:
INSERT INTO assay_data (chemical_structure, label) VALUES
  ('COc1ccc(-c2ccc3nc(C)c(-c4cnccn4)n3n2)cc1OC', 'label 0'),
  ('COc1cccc(NC(=O)NCCCOc2cc(-c3ccc4nc(C)c(-c5cnc(N)c(C(F)(F)F)c5)n4n3)ccc2OC)c1', 'label 0'),
  ('COc1cc(-c2ccc3nc(C)c(-c4cnc(N)c(C(F)(F)F)c4)n3n2)ccc1OCCNC(=O)c1ccc(N2CCOCC2)cc1', 'label 0'),
  ('CCOc1ccc(-c2ccc3nc(C)c(-c4ccc(-c5ccc(C#N)nc5)nc4)n3n2)cc1OC', 'label 0');

Record COc1cc(-c2ccc3nc(C)c(-c4cnc(N)c(C(F)(F)F)c4)n3n2)ccc1OCCCN1CCCC1=O : is its IC50 strictly below 4 µM? label 1

Record Cc1nc2ccc(-c3ccc(OCCCN4CCCC4=O)cc3)nn2c1-c1ccc(S(C)(=O)=O)cc1 : is its IC50 strictly below 4 µM? label 0

Record COc1ccc(-c2ccc3nc(C)c(-c4ccnc(NCc5ccccc5)n4)n3n2)cc1OC : is its IC50 strictly below 4 µM? label 0

Record COc1ccc(-c2ccc3nc(C)c(-c4cncc(C#N)c4)n3n2)cc1OC : is its IC50 strictly below 4 µM? label 0

Record COc1ccc(-c2ccc3nc(C)c(-c4cnc(N)c(C(F)(F)F)c4)n3n2)cc1OC : is its IC50 strictly below 4 µM? label 1

Record COc1cc(-c2ccc3nc(C)c(-c4cnc(N)c(C(F)(F)F)c4)n3n2)ccc1OCCNC(=O)c1ccc(OC)c(OC)c1OC : is its IC50 strictly below 4 µM? label 0

Record COc1ccc(-c2ccc3nc(C)c(-c4ncccc4C)n3n2)cc1OC : is its IC50 strictly below 4 µM? label 0

---

Biological target: PI3K alfa (Homo sapiens)
Construct: p85(iSH2) fusion partner (same polypeptide; see partner chain) (N); 12x Gly linker (N); His tag (C); Tn5 (Trichoplusia ni) or TiniPro insect cells
Sequence (P42336 with tags, fused parts or gaps limits assumed): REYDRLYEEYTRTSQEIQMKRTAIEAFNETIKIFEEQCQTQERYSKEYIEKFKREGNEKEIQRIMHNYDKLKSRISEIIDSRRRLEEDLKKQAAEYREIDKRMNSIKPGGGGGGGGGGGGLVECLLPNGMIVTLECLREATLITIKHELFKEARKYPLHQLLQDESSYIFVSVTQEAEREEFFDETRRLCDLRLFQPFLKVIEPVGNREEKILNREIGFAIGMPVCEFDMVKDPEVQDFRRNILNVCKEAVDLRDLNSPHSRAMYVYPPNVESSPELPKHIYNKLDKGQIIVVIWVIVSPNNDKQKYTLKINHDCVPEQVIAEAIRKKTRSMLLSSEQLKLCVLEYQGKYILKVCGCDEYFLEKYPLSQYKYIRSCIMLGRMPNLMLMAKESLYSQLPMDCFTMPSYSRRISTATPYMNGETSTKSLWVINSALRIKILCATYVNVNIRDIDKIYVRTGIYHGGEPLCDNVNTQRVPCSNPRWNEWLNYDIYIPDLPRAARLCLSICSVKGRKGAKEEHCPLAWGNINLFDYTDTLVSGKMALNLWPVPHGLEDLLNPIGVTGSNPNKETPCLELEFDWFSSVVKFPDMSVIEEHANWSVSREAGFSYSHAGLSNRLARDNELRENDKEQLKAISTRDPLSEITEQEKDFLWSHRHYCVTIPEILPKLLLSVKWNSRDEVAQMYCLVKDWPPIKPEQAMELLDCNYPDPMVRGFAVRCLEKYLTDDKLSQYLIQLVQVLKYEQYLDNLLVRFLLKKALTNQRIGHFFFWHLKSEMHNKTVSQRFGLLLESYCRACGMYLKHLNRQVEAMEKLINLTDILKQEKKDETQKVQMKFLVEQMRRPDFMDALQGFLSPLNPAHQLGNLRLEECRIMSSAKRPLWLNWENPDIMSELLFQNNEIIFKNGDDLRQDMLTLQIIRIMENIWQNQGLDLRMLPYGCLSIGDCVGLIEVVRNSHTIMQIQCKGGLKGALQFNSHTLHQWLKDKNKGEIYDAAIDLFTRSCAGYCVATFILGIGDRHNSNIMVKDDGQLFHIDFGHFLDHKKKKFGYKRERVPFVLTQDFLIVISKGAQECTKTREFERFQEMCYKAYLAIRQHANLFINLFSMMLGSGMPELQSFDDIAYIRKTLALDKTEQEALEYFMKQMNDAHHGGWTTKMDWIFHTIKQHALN
Assay: PI3K alfa enzymatic assay (Kinase-Glo luminescence)
Conditions: Enzymatic Data
pIC50: −log10 of the molar value.
Classify as follows. Reported pIC50 greater than or equal to 6: condition met. Reported pIC50 below: condition not met.

hey, is pIC50 for this one >= 6? COCCOCCOCCOc1ccc(-c2ccc3nc(C)c(-c4cnc(N)c(C(F)(F)F)c4)n3n2)cc1OC [Example 84] condition met

hey, is pIC50 for this one >= 6? CCS(=O)(=O)c1ccc(-c2c(C)nc3ccc(-c4ccc(OC5CCN(C(=O)OC(C)(C)C)CC5)c(OC)c4)nn23)cc1 [Example 99] condition not met

hey, is pIC50 for this one >= 6? COc1cc(-c2ccc3nc(C)c(-c4cnc(N)c(C(F)(F)F)c4)n3n2)ccc1OCCNC(=O)Nc1cccc(C#N)c1 [Example 47] condition not met

hey, is pIC50 for this one >= 6? CCS(=O)(=O)c1ccc(-c2c(C)nc3ccc(-c4ccc(OC5CCNCC5)c(OC)c4)nn23)cc1 [Example 102] condition not met

hey, is pIC50 for this one >= 6? COc1ccc(-c2ccc3nc(C)c(-c4cc[nH]n4)n3n2)cc1OC [Example 20] condition met

hey, is pIC50 for this one >= 6? COc1cc(-c2ccc3nc(C)c(-c4cnc(N)c(C(F)(F)F)c4)n3n2)ccc1OC1CCN(C(=O)OC(C)(C)C)CC1 [Example 92] condition not met

hey, is pIC50 for this one >= 6? COc1ccc(-c2ccc3nc(C)c(-c4ncccc4C)n3n2)cc1OC [Example 16] condition not met

hey, is pIC50 for this one >= 6? COc1ccc(-c2ccc3nc(C)c(-c4ccc(N5CCNCC5)nc4)n3n2)cc1OC [Example 11] condition met
